Test system: SW480
Experiment: TCF/Wnt firefly luciferase reporter signal relative to plate median (fraction of plate median); higher = higher Wnt reporter signal
Conditions: 5 µM; treatment time 24 h; reporter: 7TFP
Param threshold (1) applies to TCF/Wnt firefly luciferase reporter signal; output Condition met when value >= threshold, Condition not met when value < threshold.

- Molecule: "COc1cc(C(C)=O)cc(OC)c1O"
  Measured on: "SW480"
  Class label: "Condition not met"
- Molecule: "CC1=Nc2ccc(Cl)cc2S(=O)(=O)N1"
  Measured on: "SW480"
  Class label: "Condition not met"
- Molecule: "CN(Cc1cnc2nc(N)nc(N)c2n1)c1ccc(C(=O)N[C@@H](CCC(=O)O)C(=O)O)cc1"
  Measured on: "SW480"
  Class label: "Condition met"
- Molecule: "CCOC(=O)CCCCCCCCCCCCC1C=CCC1 (stereo unspecified)"
  Measured on: "SW480"
  Class label: "Condition not met"
- Molecule: "CC(=O)OCC1=C(C(=O)O)N2C(=O)[C@@H](NC(=O)CSc3ccncc3)[C@H]2SC1"
  Measured on: "SW480"
  Class label: "Condition met"
- Molecule: "COc1cccc(OC)c1C(=O)N[C@@H]1C(=O)N2[C@@H]1SC(C)(C)[C@@H]2C(=O)O"
  Measured on: "SW480"
  Class label: "Condition met"

###

In this section, each of the compounds is paired with its reported cell viability.
System: SW480
Assay: cell viability (CellTiter-Glo) relative to plate median (fraction of plate median); higher = more viable cells
Conditions: 5 µM; treatment time 24 h; reporter: 7TFP
Where a name gives a salt, the structure may show the parent alone.

- Compound: "CCOC(=O)c1c(C)c(Cl)c(O)c(Cl)c1O"
  cell viability: 0.902
- Compound: "COc1cc(O)c2c(=O)cc(-c3ccc(OC)c(-c4c(O)cc(O)c5c(=O)cc(-c6ccc(O)cc6)oc45)c3)oc2c1 [GINKGETIN, K salt]"
  cell viability: 0.993
- Compound: "CC(=O)NCCc1ccc(O)cc1 [N-Acetyl-tyramine]"
  cell viability: 0.991
- Compound: "c1ccc(-c2ccc(C(c3ccccc3)n3ccnc3)cc2)cc1 (stereo not drawn)"
  cell viability: 0.965
- Compound: "CC(=O)O[C@H]1CC[C@]2(C)[C@H]3CC[C@@]4(C)[C@H](c5ccoc5)OC(=O)[C@H]5O[C@]54[C@]3(C)[C@H](OC(C)=O)C[C@H]2C1(C)C [3beta-ACETOXYDEOXODIHYDROGEDUNIN]"
  cell viability: 0.949
- Compound: "CNCc1ccccc1"
  cell viability: 1.03
- Compound: "C[C@@H]1CC[C@@]2(OC1)O[C@H]1C[C@H]3[C@@H]4CC=C5C[C@@H](O)CC[C@]5(C)[C@H]4CC[C@]3(C)[C@H]1[C@@H]2C"
  cell viability: 0.93
- Compound: "O=C(/C=C/c1ccc(O)c(O)c1)O[C@@H]1C[C@](O)(C(=O)O)C[C@@H](O)[C@H]1O"
  cell viability: 0.925

###

Test system: SW480
Test: cell viability (CellTiter-Glo) relative to plate median (fraction of plate median); higher = more viable cells
Settings: 10 µM; treatment time 24 h; reporter: 7TFP
# note: boundary value 1 maps to NOT MET; cell viability below it maps to MET

- Compound: "C[C@@H](Oc1cc(-n2cnc3ccc(CN4CCN(C)CC4)cc32)sc1C(N)=O)c1ccccc1C(F)(F)F"
  Measured on: "SW480"
  Class label: "NOT MET"
- Compound: "Nc1nc(N)c2nc(-c3cccc(O)c3)c(-c3cccc(O)c3)nc2n1"
  Measured on: "SW480"
  Class label: "MET"
- Compound: "CN(C)Cc1cccc(N=C(c2ccccc2)c2c(O)[nH]c3cc(C(=O)N(C)C)ccc23)c1"
  Measured on: "SW480"
  Class label: "NOT MET"
- Compound: "CCN1CCN(Cc2ccc(-c3cc4c(N[C@H](C)c5ccccc5)ncnc4[nH]3)cc2)CC1"
  Measured on: "SW480"
  Class label: "NOT MET"
- Compound: "COc1cc2c(Oc3ccc(NC(=O)C4(C(=O)Nc5ccc(F)cc5)CC4)cc3F)ccnc2cc1OCCCN1CCOCC1"
  Measured on: "SW480"
  Class label: "NOT MET"
- Compound: "Cc1cc2c(F)c(Oc3ncnn4cc(OC[C@@H](C)O)c(C)c34)ccc2[nH]1"
  Measured on: "SW480"
  Class label: "MET"
- Compound: "COc1cc(Nc2ncc(F)c(Nc3ccc4c(n3)NC(=O)C(C)(C)O4)n2)cc(OC)c1OC [R406(free base)]"
  Measured on: "SW480"
  Class label: "MET"

Data origin, for the record: the supplement of paper PMC6522484
